- target.desc: T1, Rat cKIT D1-5, C-terminal mFc (rat)
- T1 construct: also called rat cKIT-mFc
- T1 chain: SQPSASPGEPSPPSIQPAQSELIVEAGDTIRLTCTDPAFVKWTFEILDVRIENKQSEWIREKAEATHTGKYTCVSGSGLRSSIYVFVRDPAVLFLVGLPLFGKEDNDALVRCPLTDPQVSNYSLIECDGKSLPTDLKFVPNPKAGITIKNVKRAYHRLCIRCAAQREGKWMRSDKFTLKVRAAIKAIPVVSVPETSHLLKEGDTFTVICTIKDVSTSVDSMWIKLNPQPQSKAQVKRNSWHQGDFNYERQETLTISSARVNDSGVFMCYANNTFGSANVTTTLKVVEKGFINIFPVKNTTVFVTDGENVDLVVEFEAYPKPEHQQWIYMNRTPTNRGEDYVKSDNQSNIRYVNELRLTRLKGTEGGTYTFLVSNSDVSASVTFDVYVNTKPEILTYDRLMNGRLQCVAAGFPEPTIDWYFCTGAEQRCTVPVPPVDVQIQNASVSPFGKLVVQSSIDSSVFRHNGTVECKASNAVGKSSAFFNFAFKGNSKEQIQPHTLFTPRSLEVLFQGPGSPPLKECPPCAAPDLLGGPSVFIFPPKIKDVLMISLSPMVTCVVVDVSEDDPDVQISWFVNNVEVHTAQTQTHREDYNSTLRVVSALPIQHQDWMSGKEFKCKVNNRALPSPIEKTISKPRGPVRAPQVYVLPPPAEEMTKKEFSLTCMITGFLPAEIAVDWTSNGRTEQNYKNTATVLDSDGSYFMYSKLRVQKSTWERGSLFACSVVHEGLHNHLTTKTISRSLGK
- assay.summary: reactivity to rat cKIT (method not given; Example 4 describes SPR)

| binder | binding result |
| --- | --- |
| Anti-cKIT Ab1 (antibody, human IgG1, kappa, V domains shown, Full-length human IgG1, kappa light chain) VH: QVQLVQSGAEVKKPGSSVKVSCKASGGTFSSYAISWVRQAPGQGLEWMGVIFPAEGAPGYAQKFQGRVTITADESTSTAYMELSSLRSEDTAVYYCARGGYISDFDVWGQGTLVTVSS VL: DIQMTQSPSSLSASVGDRVTITCRASQSISNYLAWYQQKPGKAPKLLIYDASSLQSGVPSRFSGSGSGTDFTLTISSLQPEDFATYYCQQYYYESITFGQGTKVEIKR | no binding |
| Anti-cKIT Ab5 (antibody, human IgG1, lambda, V domains shown, Full-length human IgG1, lambda light chain) VH: QVQLVQSGAEVKKPGESLKISCKGSGYSFTNYWIAWVRQMPGKGLEWMGIIYPSNSYTLYSPSFQGQVTISADKSISTAYLQWSSLKASDTAMYYCARVPPGGSISYPAFDHWGQGTLVTVSS VL: DIELTQPPSVSVSPGQTASITCSGDNIGSIYASWYQQKPGQAPVLVIYRDNKRPSGIPERFSGSNSGNTATLTISGTQAEDEADYYCSVTDMEQHSVFGGGTKLTVLG | binds |
| Anti-cKIT Ab3 (antibody, human IgG1, kappa, V domains shown, Full-length human IgG1, kappa light chain) VH: QVQLVQSGAEVKKPGSSVKVSCKASGGTFSSYAISWVRQAPGQGLEWMGTIGPFEGQPRYAQKFQGRVTITADESTSTAYMELSSLRSEDTAVYYCARGGYISDFDVWGQGTLVTVSS VL: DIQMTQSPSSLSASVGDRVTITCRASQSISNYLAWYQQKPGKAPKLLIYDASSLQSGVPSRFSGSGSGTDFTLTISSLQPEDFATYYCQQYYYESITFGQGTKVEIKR | no binding |
| Anti-cKIT Ab4 (antibody, human IgG1, lambda, V domains shown, Full-length human IgG1, lambda light chain) VH: QVQLQQSGPGLVKPSQTLSLTCAISGDSVSTNSAAWNWIRQSPSRGLEWLGRIYYRSQWLNDYAVSVKSRITINPDTSKNQFSLQLNSVTPEDTAVYYCARQLTYPYTVYHKALDVWGQGTLVTVSS VL: DIELTQPPSVSVSPGQTASITCSGDNLGDQYVSWYQQKPGQAPVLVIYDDTDRPSGIPERFSGSNSGNTATLTISGTQAEDEADYYCQSTDSKSVVFGGGTKLTVLG | binds |
